system: 242566-281-R-J2-PDC complex spheroid viability; test: Anticancer human tumor 242566-281-R-J2-PDC patient-derived pancreatic carcinoma cell line growth inhibition [CLK]; conditions: second compound 3.16 µM; first compound 0.1 µM; active compounds read low;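 note: spheroids exposed to compounds for 7 days before readout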
Recorded viability, T/C split into classes range A (below 7%), range B (7% to below 40%), range C (40% or more)

Use these answered entries as a reference point.
Form field 'band' for C=C(F)C(=O)N1CCN(c2nc(OCC3CCCN3C)nc3c2CCN(c2cccc4cccc(Cl)c24)C3)CC1CC#N (stereo unspecified) + CNC(=O)c1ccc(Nc2nc(OC3CCCC3)c3c(-c4ccc5nc(C)oc5c4)c[nH]c3n2)c(OC)c1
range C

Which viability, T/C category applies to Nc1ccn(C2OC(CO)C(O)C2(F)F)c(=O)n1 (stereo unspecified) + CN1CCN(c2cc(C(=O)Nc3cc4cc(-c5cnn(C)c5)ccc4cn3)ccn2)CC1 here?
range A

Which class does Nc1ccccc1NC(=O)c1ccc(CNC(=O)OCc2cccnc2)cc1 + CNC(=O)c1ccc(Nc2nc(OC3CCCC3)c3c(-c4ccc5nc(C)oc5c4)c[nH]c3n2)c(OC)c1 fall in?
range C

Textbook exercise: identify the category of the compound given here, CCCS(=O)(=O)Nc1ccc(F)c(C(=O)c2c[nH]c3ncc(-c4ccc(Cl)cc4)cc23)c1F + CN1CCN(c2cc(C(=O)Nc3cc4cc(-c5cnn(C)c5)ccc4cn3)ccn2)CC1 , according to its measured value.
range B

Field: class (viability, T/C) — entry: O=C(c1cc(Cc2n[nH]c(=O)c3ccccc23)ccc1F)N1CCN(C(=O)C2CC2)CC1 + CNC(=O)c1ccc(Nc2nc(OC3CCCC3)c3c(-c4ccc5nc(C)oc5c4)c[nH]c3n2)c(OC)c1
range C

***
Kindly identify the class of CCc1c2c(nc3ccc(O)cc13)-c1cc3c(c(=O)n1C2)COC(=O)[C@]3(O)CC + CN1CCN(c2cc(C(=O)Nc3cc4cc(-c5cnn(C)c5)ccc4cn3)ccn2)CC1 .
range A

Category lookup for the compound COc1cccc2c1C(=O)c1c(O)c3c(c(O)c1C2=O)CC(O)(C(=O)CO)CC3OC1CC(N)C(O)C(C)O1 (stereo unspecified) + CNC(=O)c1ccc(Nc2nc(OC3CCCC3)c3c(-c4ccc5nc(C)oc5c4)c[nH]c3n2)c(OC)c1
range B

Dear colleague, I would appreciate it if you could identify the bin for COc1cccc2c1C(=O)c1c(O)c3c(c(O)c1C2=O)CC(O)(C(=O)CO)CC3OC1CC(N)C(O)C(C)O1 (stereo unspecified) + CN1CCN(c2cc(C(=O)Nc3cc4cc(-c5cnn(C)c5)ccc4cn3)ccn2)CC1 and reply at your convenience.
range A
